The reported measurements were obtained from paper PMC5540273.

Give measured %Inh for each item. Keep answers brief.
Tested on: RSK4(Kin.Dom.2-C-terminal);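 note: KINOMEscan kinase panel screen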
Construct: gene RPS6KA6
CONDITION_SUMMARY: concentration: 1 μM, replicates: in singlicate; n = 1
Reply with just the number (in %).

Inquiry: Supply %Inh measured with RSK4(Kin.Dom.2-C-terminal) for "Nc1ncnc2c1ncn2-c1cccc2ccccc12" .
Reply text: 0

Inquiry: Supply %Inh measured with RSK4(Kin.Dom.2-C-terminal) for "COc1cc(Nc2ccnc3ccc(C(F)(F)F)cc23)cc(OC)c1OC" .
Reply text: 21

Inquiry: Supply %Inh measured with RSK4(Kin.Dom.2-C-terminal) for "CN(C)c1cc(-c2ccc3c(N)n[nH]c3c2)nc(N)n1" .
Reply text: 14

Inquiry: Supply %Inh measured with RSK4(Kin.Dom.2-C-terminal) for "CCC(=O)c1c(-c2ccccc2)c2cc(Cl)ccc2c(=O)n1Cc1ccc(C(=O)O)cc1" .
Reply text: 0

Inquiry: Supply %Inh measured with RSK4(Kin.Dom.2-C-terminal) for COc1cc(Nc2nccc(N3CCC(NC(=O)C4COc5ccccc5O4)C3)n2)cc(OC)c1OC (centres unmarked) .
Reply text: 2

Inquiry: Supply %Inh measured with RSK4(Kin.Dom.2-C-terminal) for "CCC(=O)c1c(-c2ccccc2)c2cc(Cl)ccc2c(=O)n1Cc1cc(S(C)(=O)=O)n(CC(N)=O)n1" .
Reply text: 5

Inquiry: Supply %Inh measured with RSK4(Kin.Dom.2-C-terminal) for "CCc1nc(-c2cccc(C)c2)c(-c2ccncc2)s1" .
Reply text: 94.6

Inquiry: Supply %Inh measured with RSK4(Kin.Dom.2-C-terminal) for "CCn1c(-c2ccoc2)nc2cnccc21" .
Reply text: 0

Inquiry: Supply %Inh measured with RSK4(Kin.Dom.2-C-terminal) for "OCCCNc1nccc(-c2c(-c3cccc(C(F)(F)F)c3)nn3cc(C(F)(F)F)ccc23)n1" .
Reply text: 89

Inquiry: Supply %Inh measured with RSK4(Kin.Dom.2-C-terminal) for "COC(=O)c1c(-c2ccccc2)c2cc(Br)ccc2c(=O)n1Cc1ccc(S(C)(=O)=O)cc1" .
Reply text: 6

Inquiry: Supply %Inh measured with RSK4(Kin.Dom.2-C-terminal) for "COc1cccc(C2=C(Nc3cccc(C(=O)O)c3)C(=O)NC2=O)c1" .
Reply text: 10
